experiment: Exposure-efficacy analysis; format: in vivo, human; settings: human, plasma, oral, AUCss range of quartile, AUCss quartile 1; 51 patients
assay-endpoint: AUC

Request: Quick one: give measured AUC for "N#Cc1ccnc(N2C(=O)CC[C@H]2C(=O)N(c2cncc(F)c2)[C@H](C(=O)NC2CC(F)(F)C2)c2ccccc2Cl)c1"
Result: 40900 to 93100 ng·h/mL

====

experiment: Exposure-efficacy analysis; format: in vivo, human; conditions: human, plasma, oral, AUCss range of quartile, AUCss quartile 4; 50 patients
assay-endpoint: AUC

Request: Report AUC for N#Cc1ccnc(N2C(=O)CC[C@H]2C(=O)N(c2cncc(F)c2)[C@H](C(=O)NC2CC(F)(F)C2)c2ccccc2Cl)c1 [ivosidenib]
Result: 171 to 361 µg·h/mL
